A set of compounds tested on MMP-8 (Homo sapiens, UniProt P22894), with measured pIC50:
pIC50: −log10 of the molar value. Structures can show the parent of a compound that is named as a salt.

Compound: O=C(NO)c1c(S(=O)(=O)N2CCC(Oc3ccc(C(F)(F)F)cc3)CC2)ccc2c1OCO2 [Example 36]
Modifier: =
pIC50: 7.91
//
Compound: COc1ccc(S(=O)(=O)N2CCN(Cc3ccccc3)CC2)c(C(=O)NO)c1OC [Example 52, monohydrochloride]
Modifier: <
pIC50: 5.00
//
Compound: CCOc1ccccc1-c1ccc(OC2CCN(S(=O)(=O)c3ccc(OC)c(OC)c3C(=O)NO)CC2)cc1 [Example 40]
Modifier: =
pIC50: 5.36
//
Compound: COc1ccc(S(=O)(=O)N2CCC(Oc3ccc4c(c3)OCO4)CC2)c(C(=O)NO)c1OC [Example 50]
Modifier: =
pIC50: 7.91
//
Compound: COc1ccc(OC2CCN(S(=O)(=O)c3ccc(OC)c(OC)c3C(=O)NO)CC2)cc1 [Example 45]
Modifier: =
pIC50: 7.94
//
Compound: COc1ccc(C(C)C)cc1-c1ccc(OC2CCN(S(=O)(=O)c3ccc(OC)c(OC)c3C(=O)NO)CC2)cc1 [Example 39]
Modifier: =
pIC50: 6.40
//
Compound: CCCCOc1ccc(OC2CCN(S(=O)(=O)c3ccc(OC)c(OC)c3C(=O)NO)CC2)cc1 [Example 54]
Modifier: =
pIC50: 7.15
